Study system: BsuCA2 (BsCA2)
Assay type: biochemical, Brucella suis
Condition details: read-out: KI (nM) ^* / BsuCA2^b
Here the recorded Ki is given for each entry.
Reported property: Ki (nM)

INSERT INTO measurements (compound, study_system, reading) VALUES
  ('CCc1cc(CC)n(-c2ccncc2S(N)(=O)=O)n1 [compound 17, 17]', 'BsuCA2 (BsCA2)', 420),
  ('NS(=O)(=O)c1cnccc1N1CCN(Cc2ccc3c(c2)OCO3)CC1 [compound 11, 11]', 'BsuCA2 (BsCA2)', 336),
  ('CCOC(=O)CCc1c(C)nn(-c2ccncc2S(N)(=O)=O)c1C [compound 16, 16]', 'BsuCA2 (BsCA2)', 706),
  ('Cc1cc(C)n(-c2ccncc2S(N)(=O)=O)n1 [compound 13, 13]', 'BsuCA2 (BsCA2)', 780),
  ('NS(=O)(=O)c1cnccc1N1CCN(Cc2ccccc2)CC1 [compound 10, 10]', 'BsuCA2 (BsCA2)', 97);
